# EXPERIMENT_SUMMARY: AUCinfinity in Sprague-Dawley rat at 10 mg/kg, iv measured up to 24 hrs by LC-MS/MS analysis
# Assay type: ADME, organism-based
# Set-up: dose 10 mg/kg, time < 24 hrs, route iv
# EXPERIMENTAL_CONDITIONS: in vivo
MEASURED_ENDPOINT: AUC(0-inf) (ng·h/mL)
Write the value in ng·h/mL as a bare number.

Query: Item Cc1cc(Nc2ccc(C(=O)/C=C/c3ccc4ccccc4c3)cc2)n2nc(SCc3nc4ccccc4[nH]3)nc2n1 : provide AUC(0-inf)
Result: 9450

----------
# EXPERIMENT_SUMMARY: MRTinfinity in Sprague-Dawley rat at 10 mg/kg, iv measured up to 24 hrs by LC-MS/MS analysis
# Assay type: ADME, organism-based
# EXPERIMENTAL_CONDITIONS: in vivo
MEASURED_ENDPOINT: MRT inf (min)
Please reply with the bare figure in min and do not write the unit itself.

Query: Specify reported MRT inf for the compound shown: Cc1cc(Nc2ccc(C(=O)/C=C/c3ccc4ccccc4c3)cc2)n2nc(SCc3nc4ccccc4[nH]3)nc2n1
Result: 6.42

----------
# Tested on: HEK293
# EXPERIMENT_SUMMARY: Reversal of resistance to paclitaxel-induced cytotoxicity in human HEK293/pcDNA3.1 cells assessed as reduction in paclitaxel IC50 at 1 uM preincubated for 4 hrs followed by paclitaxel addition and measured after 72 hrs by MTT assay (reference value: 1.93 +/- 0.06 nM)
# Format: functional, cell-based
MEASURED_ENDPOINT: IC50
Lab note: write values as number then unit, every time.

Query: Give me measured IC50, please, for this compound: Cc1cc(Nc2ccc(C(=O)/C=C/c3ccc4ccccc4c3)cc2)n2nc(SCc3nc4ccccc4[nH]3)nc2n1
Result: 1.69 nM

----------
# System: SW-620
# EXPERIMENT_SUMMARY: Reversal of resistance to paclitaxel-induced cytotoxicity in human SW-620/AD300 cells assessed as reduction in paclitaxel IC50 at 6 uM preincubated for 4 hrs followed by paclitaxel addition and measured after 72 hrs by MTT assay (reference value: 4.23 +/- 0.50 uM)
# Assay type: functional, cell-based
MEASURED_ENDPOINT: IC50
Write the quantity with the unit trailing the number.

Query: Specify IC50 for Cc1cc(Nc2ccc(C(=O)/C=C/c3ccc4ccccc4c3)cc2)n2nc(SCCc3ccccc3)nc2n1 and stop.
Result: 670 nM

----------
# Tested on: HEK293
# EXPERIMENT_SUMMARY: Reversal of resistance to paclitaxel-induced cytotoxicity in human HEK293/pcDNA3.1 cells assessed as reduction in paclitaxel IC50 at 2 uM preincubated for 4 hrs followed by paclitaxel addition and measured after 72 hrs by MTT assay (reference value: 1.93 +/- 0.06 nM)
# Type: functional, cell-based
MEASURED_ENDPOINT: IC50
Reply with a number, then the unit it belongs to.

Query: Lab note: record IC50 of Cc1cc(Nc2ccc(C(=O)/C=C/c3ccc4ccccc4c3)cc2)n2nc(SCc3nc4ccccc4[nH]3)nc2n1 tested on HEK293.
Result: 1.31 nM
